system: mice; assay: Mouse locomotor activity; assay type: in vivo; details: 30 mg/kg, PO; also: unit not given here
Measured Mouse Locomotor Activity Total Distance Traveled ± S.E.M. accompanies every entry in the list below.
Observable: Mouse Locomotor Activity Total Distance Traveled ± S.E.M.

>>> print(df.to_string())
                                   compound  assay_result
0  CNC(C)C1(c2ccc(Cl)c(Cl)c2)CCCCC1 (single isomer, unassigned) [44 E1]         402.3
1  CN(C)CC1(c2ccc(Cl)c(Cl)c2)CCCCC1O (single isomer, unassigned) [153 E2]         573.7
2  CN(C)CC1(c2ccc3ccccc3c2)CCCCC1O (single isomer, unassigned) [164 E1]         494.0
3  CN(C)CC1(c2ccc(Cl)c(Cl)c2)CCC(C)(O)CC1 (centres unmarked) [Compound 277]         327.7
4  CN(C)CC1(c2ccc3ccccc3c2)CCCCC1O (single isomer, unassigned) [164 E2]         669.9
5  CNCC1(c2ccc3ccccc3c2)CCCCC1 [Compound 93]         737.6
6  CNC(C)C1(c2ccc(Cl)c(Cl)c2)CCCCC1.Cl (single isomer, unassigned) [48 E1]         468.6
7  CC(N(C)C)C1(c2ccc3ccccc3c2)CCCCC1 (single isomer, unassigned) [56 E1]         252.2

---

target: 5-HT Transporter (SERT) Sites in Mouse Brain (Mus musculus); construct: Whole brains were removed and cortex and striata dissected out; from tissue; host or cells: C57BL/6 mouse frontal cortex homogenate; experiment: Ex vivo [3H] citalopram binding after oral dosing; design: species or system C57BL/6 mice; settings: 1 mg/kg, 60 minutes after treatment, vs vehicle
Sequence (Q60857 whole entry): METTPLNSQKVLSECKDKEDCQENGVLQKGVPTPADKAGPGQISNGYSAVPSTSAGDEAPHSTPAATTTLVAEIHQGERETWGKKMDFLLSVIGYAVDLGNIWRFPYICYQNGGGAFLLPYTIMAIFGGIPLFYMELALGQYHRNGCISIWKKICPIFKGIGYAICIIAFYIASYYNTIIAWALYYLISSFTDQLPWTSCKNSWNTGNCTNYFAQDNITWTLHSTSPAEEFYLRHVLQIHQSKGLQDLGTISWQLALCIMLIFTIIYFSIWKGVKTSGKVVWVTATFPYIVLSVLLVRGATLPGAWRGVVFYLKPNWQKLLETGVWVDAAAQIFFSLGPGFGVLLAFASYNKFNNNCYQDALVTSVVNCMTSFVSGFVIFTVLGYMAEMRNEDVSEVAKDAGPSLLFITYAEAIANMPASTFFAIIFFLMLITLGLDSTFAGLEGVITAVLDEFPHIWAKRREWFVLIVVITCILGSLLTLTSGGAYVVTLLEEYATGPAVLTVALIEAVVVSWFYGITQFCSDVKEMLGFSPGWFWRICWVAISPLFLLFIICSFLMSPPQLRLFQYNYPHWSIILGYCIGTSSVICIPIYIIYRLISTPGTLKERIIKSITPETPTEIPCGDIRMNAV
Measured % Transporter Occupancy, SERT accompanies every entry in the list below.
Observable: % Transporter Occupancy, SERT (%)

>>> df
                                   molecule                             tested_target  assay_result
0  CC(N(C)C)C1(c2ccc3ccccc3c2)CCCCC1 (single isomer, unassigned) [56 E1]  5-HT Transporter (SERT) Sites in Mouse Brain (Mus musculus)            19
1  CNC(C)C1(c2ccc3ccccc3c2)CCCCC1 (single isomer, unassigned) [58 E1]  5-HT Transporter (SERT) Sites in Mouse Brain (Mus musculus)             5
2  CNCC1(c2ccc(Cl)c(Cl)c2)CCC(C)(O)CC1 (centres unmarked)  5-HT Transporter (SERT) Sites in Mouse Brain (Mus musculus)            12
3  CN(C)C[C@]1(c2ccc3ccccc3c2)CC[C@](C)(O)CC1  5-HT Transporter (SERT) Sites in Mouse Brain (Mus musculus)            17
4  CN(C)CC1(c2ccc(Cl)c(Cl)c2)CCC(C)(O)CC1 (centres unmarked)  5-HT Transporter (SERT) Sites in Mouse Brain (Mus musculus)            -6

---

test system: Rats; assay: Rat forced swim test; assay type: in vivo; conditions: 3 mg/kg, PO, 24 hours and 30-60 minutes before the 5 minute test
Observable: Rat Forced Swim (Means ± S.E.M.) Climbing

>>> df
                                   compound  assay_result
0  CN(C)C[C@]1(c2ccc3ccccc3c2)CC[C@](C)(O)CC1 [Compound 225]           8.4
1  CNC(C)C1(c2ccc(Cl)c(Cl)c2)CCCCC1.Cl (single isomer, unassigned) [48 E1]           7.1
2  CNCC1(c2ccc3ccccc3c2)CCCCC1 [Compound 93]           9.0
3  CC(N(C)C)C1(c2ccc3ccccc3c2)CCCCC1 (single isomer, unassigned) [56 E1]           7.1
4  CN(C)CC1(c2ccc(Cl)c(Cl)c2)CCCCC1O (single isomer, unassigned) [153 E2]           8.8
